- TARGET_UNDER_TEST: T1, recombinant human heat shock cognate 71 kDa protein (Hsc70) (human, UniProt P11142 1-646, limits assumed)
- T1 construct: also called rhHsc70; human Hsc70
- TEST_METHOD_NOTES: SEC of peptide-Hsc70 mixture; peptide:Hsc70 molar ratio 1:1
ASSAY_ENDPOINT: Percent complexation with Hsc70 (%)

Completed entries (count: 4):
{"columns": ["BINDER", "ASSAY_ENDPOINT", "RECORDED_RESULT"],
 "data": [
  ["FFRKNFLRLTF (Synthetic peptide) [PEP027]", "Percent complexation with Hsc70", 77],
  ["FFRKNWLKLRW (Synthetic peptide) [PEP057]", "Percent complexation with Hsc70", 72.2],
  ["FFRKNLLRLTW (Synthetic peptide) [PEP155]", "Percent complexation with Hsc70", 75.6],
  ["FFRKNWLRLFW (Synthetic peptide) [PEP010]", "Percent complexation with Hsc70", 64.9]
]}

A: FFRKNWLLLTW (Synthetic peptide) [PEP003]
B: FFRKNLLRWTG (Synthetic peptide) [PEP004]
Query string: Kindly identify which of A and B has the larger recorded Percent complexation with Hsc70 value. Please indicate the selected item by its label.
Result string: A
(A: 67.2%, B: 46.8%)

P: FFRKNRLLLTG (Synthetic peptide) [PEP002]
Q: FRNWLRLTW (Synthetic peptide) [PEP028]
Query string: Between item P and item Q , which reported Percent complexation with Hsc70 is smaller? Please indicate the selected item by its label.
Result string: P
(P: 48.7%, Q: 75.6%)

FYI, the data here is from patent US20220008527A1.
